System: RSV (RSS strain)
assay.details: RSV ELISA antigen reduction assay in Hep-2 cells
Format: cell-based, Respiratory Syncytial Virus
stated.conditions: human respiratory syncytial virus, 72 h; RSV-infected Hep-2 cells, 3 day assay, ELISA OD 490 nm, 7-point dilution 50 μM-0.78 μM
observable: IC50

Below are worked cases with known answers.
>  <compound>
Cc1ccc(C(=O)N[C@H]2N=C(c3ccccc3)c3ccccc3NC2=O)c(N2CCS(=O)(=O)CC2)c1

>  <IC50>
< 5 µM

$$$$
>  <compound>
O=C(N[C@H]1N=C(c2ccccc2)c2ccccc2NC1=O)c1cccnc1N1CCOCC1

>  <IC50>
5 to 10 µM

$$$$
>  <compound>
CN1CCN(Cc2ccc(C(=O)N[C@H]3N=C(c4ccccc4)c4ccccc4NC3=O)o2)CC1

>  <IC50>
< 5 µM

$$$$

For each listed entry, give its IC50.
1. O=C(N[C@H]1N=C(c2ccccc2)c2ccccc2NC1=O)c1occc1CN1CCOCC1
2. Cc1cccc(C(=O)N[C@H]2N=C(c3ccccc3)c3ccccc3NC2=O)c1N1CCS(=O)(=O)CC1
3. O=C(N[C@H]1N=C(c2ccccc2)c2ccccc2NC1=O)c1cc(C(F)(F)F)ccc1N1CCOCC1
4. O=C(NC1N=C(c2ccccc2)c2ccccc2NC1=O)c1ccc(N2CCCCC2)nc1 (racemic)
5. Cc1nc(-c2cnccn2)sc1C(=O)N[C@H]1N=C(c2ccccc2)c2ccccc2NC1=O
6. O=C(N[C@H]1N=C(c2ccccc2)c2ccccc2NC1=O)c1ccc(CN2CCOCC2)o1
7. O=C(N[C@H]1N=C(c2ccccc2)c2ccccc2NC1=O)c1ccc(N2CCS(=O)(=O)CC2)cc1Cl
8. O=C(N[C@H]1N=C(c2ccccc2)c2ccccc2NC1=O)c1ccc(N2CCOCC2)cc1Cl

Result:
1: 5 to 10 µM; 2: < 5 µM; 3: > 10 µM; 4: 5 to 10 µM; 5: 5 to 10 µM; 6: < 5 µM; 7: < 5 µM; 8: < 5 µM

For each listed entry, give its IC50.
1. O=C(N[C@H]1N=C(c2ccccc2)c2ccccc2NC1=O)c1cc(F)ccc1N1CCS(=O)(=O)CC1
2. CN(C)Cc1ccc(C(=O)N[C@H]2N=C(c3ccccc3)c3ccccc3NC2=O)o1

Result:
["< 5 µM", "< 5 µM"]

For each listed entry, give its IC50.
1. O=C(N[C@H]1N=C(c2ccccc2)c2ccccc2NC1=O)c1ccc(-c2ccccn2)s1
2. O=C(N[C@H]1N=C(c2ccccc2)c2ccccc2NC1=O)c1csc(-c2cccnc2)n1
3. Cc1cccc(N2CCS(=O)(=O)CC2)c1C(=O)N[C@H]1N=C(c2ccccc2)c2ccccc2NC1=O

Result:
["< 5 µM", "< 5 µM", "> 10 µM"]

----------
Exercise: state measured pIC50 for each of the compounds provided.
Test system: RSV (RSS strain)
assay.details: RSV ELISA antigen reduction assay in Hep-2 cells
Assay type: cell-based, Respiratory Syncytial Virus
stated.conditions: human respiratory syncytial virus, 72 h; RSV-infected Hep-2 cells, 3 day assay, ELISA OD 490 nm, 7-point dilution 50 μM-0.78 μM
pIC50: −log10 of the molar value.

Below are worked cases with known answers.
>  <compound>
O=C(N[C@H]1N=C(c2ccccc2)c2ccccc2NC1=O)c1cc(Cl)ccc1N1CCS(=O)(=O)CC1 [Example 6]

>  <pIC50>
5.00 to 5.30

$$$$
>  <compound>
N#Cc1ccc(C(=O)N[C@H]2N=C(c3ccccc3)c3ccccc3NC2=O)c(N2CCCC2)c1 [Example 14]

>  <pIC50>
> 5.30

$$$$
>  <compound>
O=C(N[C@H]1N=C(c2ccccc2)c2ccccc2NC1=O)c1ccc(CO)o1 [Example 33]

>  <pIC50>
5.00 to 5.30

$$$$
>  <compound>
O=C(N[C@H]1N=C(c2ccccc2)c2ccccc2NC1=O)c1ccc(C(F)(F)F)cc1N1CCCCC1 [Example 17]

>  <pIC50>
5.00 to 5.30

$$$$
>  <compound>
O=C(N[C@H]1N=C(c2ccccc2)c2ccccc2NC1=O)c1cccc(S(=O)(=O)N2CCCCC2)c1 [Example 30]

>  <pIC50>
5.00 to 5.30

$$$$

For each listed entry, give its pIC50.
1. O=C(N[C@H]1N=C(c2ccccc2)c2ccccc2NC1=O)c1ccc(C(F)(F)F)cc1N1CCCC1 [Example 16]
2. O=C(N[C@H]1N=C(c2ccccc2)c2ccccc2NC1=O)c1ccc(N2CCOCC2)nc1 [Example 47]
3. O=C(N[C@H]1N=C(c2ccccc2)c2ccccc2NC1=O)c1sccc1CN1CCOCC1 [Example 48]
4. O=C(NC1N=C(c2ccccc2)c2ccccc2NC1=O)c1ccccc1N1CCOCC1 (racemic) [Example 50]

Result:
5.00 to 5.30
> 5.30
> 5.30
> 5.30

For each listed entry, give its pIC50.
1. CN1CCN(c2ccc(C(=O)NC3N=C(c4ccccc4)c4ccccc4NC3=O)cn2)CC1 (racemic) [Example 1]
2. CN1CCN(S(=O)(=O)c2cccc(C(=O)N[C@H]3N=C(c4ccccc4)c4ccccc4NC3=O)c2)CC1 [Example 28]
3. O=C(N[C@H]1N=C(c2ccccc2)c2ccccc2NC1=O)c1cc(N2CCS(=O)(=O)CC2)ccc1Cl [Example 36]
4. O=C1Nc2ccccc2C(c2ccccc2)=N[C@@H]1NC(=O)n1c(=O)n(C2CC2)c2ncccc21 [Example 27]
5. Cc1occ(S(=O)(=O)N2CCOCC2)c1C(=O)N[C@H]1N=C(c2ccccc2)c2ccccc2NC1=O [Example 46]
6. O=C(N[C@H]1N=C(c2ccccc2)c2ccccc2NC1=O)c1ccc(CN2CCCCC2)o1 [Example 10]
7. O=C(N[C@H]1N=C(c2ccccc2)c2ccccc2NC1=O)c1ccoc1CN1CCOCC1 [Example 41]

Result:
1. 5.00 to 5.30
2. < 5.00
3. > 5.30
4. < 5.00
5. 5.00 to 5.30
6. > 5.30
7. > 5.30

For each listed entry, give its pIC50.
1. O=C(N[C@H]1N=C(c2ccccc2)c2ccccc2NC1=O)c1csc(-c2ccncc2)n1 [Example 39]
2. O=C(N[C@H]1N=C(c2ccccc2)c2ccccc2NC1=O)c1cccc(S(=O)(=O)N2CCOCC2)c1 [Example 31]
3. O=C(N[C@H]1N=C(c2ccccc2)c2ccccc2NC1=O)c1ccc(F)cc1N1CCCCC1 [Example 12]
4. O=C(Nc1ccc(Oc2ccccc2)cc1)NC1N=C(c2ccccc2)c2ccccc2NC1=O (racemic) [Example 52]
5. O=C(N[C@H]1N=C(c2ccccc2)c2ccccc2NC1=O)c1cc(CN2CCOCC2)on1 [Example 43]
6. O=C(N[C@H]1N=C(c2ccccc2)c2ccccc2NC1=O)c1cccc(CN2CCOCC2)c1 [Example 42]
7. O=C(N[C@H]1N=C(c2ccccc2)c2ccccc2NC1=O)c1ccc(C(F)(F)F)cc1N1CCOCC1 [Example 18]

Result:
1. > 5.30
2. 5.00 to 5.30
3. 5.00 to 5.30
4. 5.00 to 5.30
5. > 5.30
6. > 5.30
7. > 5.30

Problem: Provide value of pIC50 for this record tested with RSV (RSS strain): O=C(N[C@H]1N=C(c2ccccc2)c2ccccc2NC1=O)c1ccc(CN2CCOCC2)s1 [Example 49]
Result: > 5.30

----------
Test system: Hep-2 cells
assay.details: Cell toxicity: crystal violet staining and microscopic examination of monolayers
Type: cell-based
stated.conditions: Hep-2 monolayers of the assay plates, crystal violet stain, indications of cell toxicity; compounds tested 50 μM-0.78 μM
observable: TD50

Below are worked cases with known answers.
>  <compound>
N#Cc1ccc(C(=O)N[C@H]2N=C(c3ccccc3)c3ccccc3NC2=O)c(N2CCCC2)c1 [Example 14]

>  <result>
Tr50

$$$$
>  <compound>
N#Cc1ccc(C(=O)N[C@H]2N=C(c3ccccc3)c3ccccc3NC2=O)c(N2CCCCC2)c1 [Example 15]

>  <result>
Tr25

$$$$
>  <compound>
O=C(N[C@H]1N=C(c2ccccc2)c2ccccc2NC1=O)c1cccnc1N1CCOCC1 [Example 21]

>  <result>
Tr25

$$$$
>  <compound>
O=C(N[C@H]1N=C(c2ccccc2)c2ccccc2NC1=O)c1ccc(F)cc1[N+]1([O-])CCS(=O)(=O)CC1 [Example 5]

>  <result>
Tr25

$$$$

Problem: TD50 for O=C(N[C@H]1N=C(c2ccccc2)c2ccccc2NC1=O)c1cc(F)ccc1N1CCS(=O)(=O)CC1 [Example 7] ?
Result: Tr50
